# Measured target: T1, GST-CHMP6 (construct of the VPS4B measurement not stated) (human, UniProt Q96FZ7 1-201)
# T1 sequence (looked up): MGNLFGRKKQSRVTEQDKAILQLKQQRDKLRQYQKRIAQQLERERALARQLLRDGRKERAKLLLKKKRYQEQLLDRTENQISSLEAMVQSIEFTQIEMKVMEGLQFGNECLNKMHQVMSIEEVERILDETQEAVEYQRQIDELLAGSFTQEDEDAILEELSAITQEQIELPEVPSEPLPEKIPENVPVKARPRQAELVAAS
# Assay info: SPR
Endpoint label: pKd
Give bare numbers, as −log10 of the molar value.

**Query** Data request, read-out pKd, for VPS4B MIT domain (domain or fragment, human, UniProt O75351 4-82, looked up) TSPNLQKAIDLASKAAQEDKAGNYEEALQLYQHAVQYFLHVVKYEAQGDKAKQSIRAKCTEYLDRAEKLKEYLKNKEKK
**Result** 3.10

The reported measurements were obtained from paper PMC2586299.
